- System: SF-268 CNS
- test: NCI-60 one-dose screen, 48 h
- condition: 10 µM unless noted
- Description: Cells are grown in 96 well plates and exposed to the test compound for 48 hours. Compounds are tested at a single concentration, which is 10^-5 M for most compounds. The reported endpoint is percent growth (GI% or GIPRCNT), where numbers from 0 - 100% represent growth inhibition, and numbers from -100% - 0 represent cell death. For example, a value of 40 represents 60% growth inhibition. A value of 0 means no net growth occurred over the course of the experiment. […]
This is part of a sample that, as a whole, favours compounds with a hit. Of some 83,000 tested, about 20% had one in any assay. Active and inactive are the calls of the source. Rule for the calls: active = growth percent below 10; inactive = the rest.
Answer with one of the outcomes given here: label 1 for active, label 0 for inactive

**Query** For `Nc1nc2ccc(-c3nc4ccc5[nH]ncc5c4c4c3CCCC4)cc2s1` , which call appears in the assay record?
**Result** label 0

**Query** Hey, what did the test say about `Cc1ccccc1/C=C/C(=O)c1cccc(OCCCOc2cccc(C(=O)/C=C/c3ccccc3C)c2)c1` ?
**Result** label 0

**Query** Would you mind telling me which call this test gave `NC(=O)CSc1oc(-c2ccccc2)nc1S(=O)(=O)c1ccc(Br)cc1` ?
**Result** label 0

**Query** Fill in: this test's call for `COC(=O)c1nc(-c2ccc(C)cc2)oc1S(=O)(=O)c1cccc(OC)c1` is ___
**Result** label 0

**Query** How was `Cc1cc(N2CCN(CCNc3ccnc4cc(Cl)ccc34)CC2)nc(N2CCOCC2)n1` classified in this test?
**Result** label 0

**Query** # outcome recorded in this test, key = `C=C(CBr)[C@@H]1CC[C@]2(C(=O)O)CC[C@]3(C)[C@H](CC[C@@H]4[C@@]5(C)CCC(=O)C(C)(C)[C@@H]5CC[C@]43C)[C@@H]12`
**Result** label 0

**Query** // param item: `COc1ccc(-c2cc(-c3ccc(Cl)cc3)c(C#N)c(=O)n2Cc2ccc(C(=O)Nc3ccccc3N)cc2)cc1` ; yields the recorded call
**Result** label 0

**Query** Per the assay record, what outcome was assigned to `CCCNC(=O)Nc1ccc2cc3ccc(NC(=O)NCCC)cc3nc2c1` ?
**Result** label 0

**Query** Recorded call for `Nc1nc2ccccc2c2c1S(=O)(=O)c1ccc(Cl)cc1C2=O` ?
**Result** label 0

**Query** Returns: the outcome recorded for `O=C(CSC(=S)n1cnnc1)NC(=O)c1ccccc1` in this assay.
**Result** label 0

**Query** Look up the recorded call for `COc1cc2c(cc1OCCCN1CCN(CCCOc3cc4c(cc3OC)C(=O)N3CCC[C@H]3C=N4)CC1)C=CC(C)(C)O2` in this test.
**Result** label 1

**Query** Assay outcome for `O=C(NNC(=O)c1ccc(NC(=O)c2ccccn2)cc1)Nc1ccc([N+](=O)[O-])cc1` : what was it?
**Result** label 0

**Query** Record lookup: outcome of this test for COc1ccc(C2CC(c3ccc(Nc4nc(Nc5ccccc5)nc(Nc5ccccc5)n4)cc3)=NN2C(C)=O)cc1 (configuration not stated) ?
**Result** label 0

**Query** Hello, I am checking results. What call was entered for N#Cc1ccc(O)c(C2=NCC(c3ccccc3)O2)c1 (configuration not stated) ?
**Result** label 0

**Query** Would you mind telling me which call this test gave `CC(=O)Oc1ccc(N2C(=O)C(Cl)=C(Nc3cccc(C(F)(F)F)c3)C2=O)cc1` ?
**Result** label 0

**Query** Kindly provide the recorded test outcome for the following compound: CC(=O)O[C@H]1CC2CCC3C(CC[C@@]4(C)C3C[C@H]([N+]3(C)CCCCC3)[C@@H]4OC(C)=O)[C@@]2(C)C[C@@H]1N1CCCCC1 (some centres not stated)
**Result** label 0

**Query** Identify the outcome logged in this assay for the compound shown: `CS(=O)(=O)Nc1cc(-c2ccc3ncnc(Nc4ccc5c(cnn5Cc5ccc(F)cc5)c4)c3c2)cnc1Cl`
**Result** label 0

**Query** Test call for this compound, please: `C=CC[Se]C(=O)Cc1c(C)n(C(=O)c2ccc(Cl)cc2)c2ccc(OC)cc12`
**Result** label 0

**Query** What did this assay record as the result for `COC(=O)c1c(C)c2n(c1C)C(=O)C(c1ccccc1)=C2` ?
**Result** label 0

**Query** Could you kindly confirm the outcome this assay logged for `COc1ccccc1N1CCCCC1` ?
**Result** label 0

**Query** Record request — test call for `CN(c1cc2ncc(=O)[nH]c2cc1NC(N)=NCc1ccc(Cl)cc1)C1CCCCC1`
**Result** label 0

**Query** State the result this test recorded for `Cn1cc(-c2csc(-c3c[nH]c4ccc(Br)cc34)n2)c2ccnc(Cl)c21` .
**Result** label 0

**Query** Test call, this compound: CC(=O)N1N=C(c2ccc(Nc3nc(Nc4ccccc4)nc(Nc4ccccc4)n3)cc2)CC1c1ccccc1 (configuration not stated)
**Result** label 0

**Query** Outcome? O=C(c1nn(-c2ccccc2)c2c1CC(NCc1ccc(F)cc1)CC2)N1CCCCC1 (configuration not stated)
**Result** label 0

**Query** Record lookup: outcome of this test for `O=C(/C=C(/C=C/c1ccc2[nH]ccc2c1)OB(F)F)/C=C/c1ccc2[nH]ccc2c1` ?
**Result** label 0

**Query** GET /call?item= `O=C(O)CCCN1C(=O)/C(=C/c2cn(-c3ccccc3)nc2-c2ccc([N+](=O)[O-])cc2)SC1=S` returns the recorded outcome of this test.
**Result** label 0

**Query** Given `NC(=O)C(=O)c1ccccc1NC=O` , state the outcome it received in this test.
**Result** label 0

**Query** # fetch the recorded call for `CCN(CC)CCCCCNc1cc(OC(=O)c2ccc(Cl)cc2)cc2cccnc12` here
**Result** label 0

**Query** Test call for this compound, please: `N#Cc1ccc2c(c1)C(=O)c1c-2n(CCCN)c(=O)c2cc([N+](=O)[O-])ccc12`
**Result** label 1

**Query** Test call for this compound, please: `CCOC(=O)c1ccc(NC(=O)c2nc(-c3cc(OC)c(OC)c(OC)c3)n(-c3ccc(Cl)cc3)n2)cc1`
**Result** label 0

**Query** Would you mind telling me which call this test gave `COc1cc(OCc2cccc(Br)c2C)cc(OC)c1C=O` ?
**Result** label 0

**Query** Outcome? `COc1ccc(C(C)=O)cc1S(=O)(=O)Nc1c(N)nc(SC)[nH]c1=O`
**Result** label 0

**Query** Could you kindly confirm the outcome this assay logged for `COc1cc2ncnc(Nc3ccc(S(=O)(=O)Nc4cc(C)on4)cc3)c2cc1OCCCN1CCN(c2ccc(F)cc2)CC1` ?
**Result** label 0

**Query** Test call for this compound, please: `Cc1ccc(NC(=O)Cn2cc(CN3CCN(c4ccnc5cc(Cl)ccc45)CC3)nn2)cc1`
**Result** label 0

**Query** Test call, this compound: CCn1cc(C(=O)O)c(=O)c2cc(F)c(N3CCN(CC(=O)Nc4ccc(S(=O)(=O)Nc5nccc(C)n5)cc4)C(C)C3)c(F)c21 (configuration not stated)
**Result** label 0

**Query** Could you check what this test reported for CN(C)CCNC(=O)c1ccc(-c2nc3ccc4[nH]ncc4c3c3c2C2CCC3C2)cc1 (configuration not stated) ?
**Result** label 0

**Query** Any idea what this test logged for `O=C(/C=C/c1cccc(Cl)c1)c1ccc(Nc2nc(Nc3ccc(F)cc3)nc(Nc3ccc(Cl)cc3)n2)cc1` ?
**Result** label 0
